Measured bioavailability, listed per entry.
Assay overview: IV and PO single dose pharmacokinetic studies in SD rats
Type: in vivo, male Sprague-Dawley (SD) rats
Particulars: Sprague-Dawley, rat, plasma, male SD rats, PO 2 mg/kg vs IV infusion 1 mg/kg, read-out: Rat % F
Method: IV and PO Single Dose Pharmacokinetic Studies in SD Rats: The pharmacokinetics of selected compounds was characterized in male Sprague-Dawley (SD) rats (250-300g). […] Pharmacokinetic parameters were generated using non-compartmental pharmacokinetic analysis (Phoenix WinNonlin, version 6.3). Values below the lower limit of quantification (LLOQ) were assigned a value of zero if predose and treated as missing thereafter. Area under the curve (AUC) was calculated using the linear trapezoidal rule. […]
Please respond with the number in % and leave the unit unwritten.

{"Compound": "CC[C@H](C)[C@H](NC(=O)OC)C(=O)N1[C@@H](C)CC[C@H]1c1ncc(-c2ccc3c(c2)COc2cc4c(ccc5nc([C@@H]6CC[C@H](C)N6C(=O)[C@@H](NC(=O)OC)[C@@H](C)OC)[nH]c54)cc2-3)[nH]1", "Measured attribute": "bioavailability", "Data value": 15.6}
{"Compound": "CC[C@H](C)C(NC(=O)OC)C(=O)N1[C@@H](C)CC[C@H]1c1nc2ccc3cc4c(cc3c2[nH]1)OCc1cc(-c2cnc([C@@H]3CC[C@H](C)N3C(=O)[C@@H](NC(=O)OC)[C@@H](C)OC)[nH]2)ccc1-4 (stereo partly drawn)", "Measured attribute": "bioavailability", "Data value": 15.8}

Could you now look at the following compound, please?
Prompt line: Field request: bioavailability | item: COC(=O)NC(C(=O)N1[C@@H](C)CC[C@H]1c1nc2ccc3cc4c(cc3c2[nH]1)OCc1cc(-c2cnc([C@@H]3CC[C@H](C)N3C(=O)[C@@H](NC(=O)OC)C3CCOCC3)[nH]2)ccc1-4)C(C)C (stereo partly drawn)
Response line: 10.2

* * *

System: NS5A chimeric genotype 1b Con1 replicon with genotype 3a S52 strain NS5A gene
Assay overview: Replicon assay, genotype 3a NS5A chimera
Format: cell-based, HCV
Particulars: Hepatitis C virus, read-out: 3a (s) (nM), genotype 3a NS5A chimeric replicon, stable replicon cells (s)
// EC50 lookup, one value per entry
Your answer is read as nM, so omit the unit and give the number.

Prompt line: Entry `COC[C@H]1C[C@@H](c2ncc(-c3ccc4c(c3)COc3cc5c(ccc6nc([C@@H]7CC[C@H](C)N7C(=O)[C@@H](NC(=O)OC)C(C)C)[nH]c65)cc3-4)[nH]2)N(C(=O)[C@@H](NC(=O)OC)C2CCOCC2)C1` : reported EC50 = ?
Response line: 0.126

* * *

System: NS5A chimeric genotype 1b Con1 replicon with genotype 3a S52 strain NS5A gene
Assay overview: Replicon assay, genotype 3a NS5A chimera
Format: cell-based, HCV
Particulars: Hepatitis C virus, read-out: 3a (s), (s); activity range
Each item that follows carries a reported EC50.

{"Compound": "CC[C@H](C)[C@H](NC(=O)OC)C(=O)N1[C@@H](C)CC[C@H]1c1ncc(-c2ccc3c(c2)COc2cc4c(ccc5nc([C@@H]6C[C@@H]7CCC[C@@H]7N6C(=O)[C@@H](NC(=O)OC)C6CCOCC6)[nH]c54)cc2-3)[nH]1 [IP]", "Measurement target": "NS5A chimeric genotype 1b Con1 replicon with genotype 3a S52 strain NS5A gene", "Measured attribute": "EC50", "Data value": "< 0.1 nM"}
{"Compound": "COC(=O)N[C@H](C(=O)N1C[C@@H](C)C[C@H]1c1nc2ccc3cc4c(cc3c2[nH]1)OCc1cc(-c2cnc([C@@H]3CC[C@H](C)N3C(=O)[C@@H](NC(=O)OC)C(C)(C)C)[nH]2)ccc1-4)C(C)C [HX]", "Measurement target": "NS5A chimeric genotype 1b Con1 replicon with genotype 3a S52 strain NS5A gene", "Measured attribute": "EC50", "Data value": "0.1 to 0.999 nM"}
{"Compound": "COC(=O)N[C@H](C(=O)N1[C@@H](C)CC[C@H]1c1ncc(-c2ccc3c(c2)COc2cc4c(ccc5nc([C@@H]6C[C@H](C)CN6C(=O)[C@@H](NC(=O)OC)C6CCOCC6)[nH]c54)cc2-3)[nH]1)C(C)C [EI]", "Measurement target": "NS5A chimeric genotype 1b Con1 replicon with genotype 3a S52 strain NS5A gene", "Measured attribute": "EC50", "Data value": "< 0.1 nM"}
{"Compound": "CC[C@H]1CC[C@@H](c2ncc(-c3ccc4c(c3)COc3cc5c(ccc6nc([C@@H]7CC[C@H](CC)N7C(=O)[C@@H](NC(=O)OC)C7CCOCC7)[nH]c65)cc3-4)[nH]2)N1C(=O)[C@@H](NC(=O)OC)C1CCOCC1 [IE]", "Measurement target": "NS5A chimeric genotype 1b Con1 replicon with genotype 3a S52 strain NS5A gene", "Measured attribute": "EC50", "Data value": "0.1 to 0.999 nM"}

Prompt line: Looking for the measured EC50 of CC[C@H]1CC[C@@H](c2ncc(-c3ccc4c(c3)COc3cc5c(ccc6nc([C@@H]7C[C@H](C)CN7C(=O)[C@@H](NC(=O)OC)C(C)C)[nH]c65)cc3-4)[nH]2)N1C(=O)[C@@H](NC(=O)OC)C1CCOCC1 [IC] , can you help?
Response line: 0.1 to 0.999 nM

Prompt line: Please give the measured EC50 for this compound: CCC[C@H](NC(=O)OC)C(=O)N1[C@@H](C)CC[C@H]1c1ncc(-c2ccc3c(c2)COc2cc4c(ccc5nc([C@@H]6CC[C@H](C)N6C(=O)[C@H](CCC)NC(=O)OC)[nH]c54)cc2-3)[nH]1 [HA]
Response line: 0.1 to 0.999 nM
